target-desc: Endothelin receptor, ET-A/ET-B (Homo sapiens) (UniProt P24530+P25101)
Sequence (P24530 whole entry, looked up, one chain of several): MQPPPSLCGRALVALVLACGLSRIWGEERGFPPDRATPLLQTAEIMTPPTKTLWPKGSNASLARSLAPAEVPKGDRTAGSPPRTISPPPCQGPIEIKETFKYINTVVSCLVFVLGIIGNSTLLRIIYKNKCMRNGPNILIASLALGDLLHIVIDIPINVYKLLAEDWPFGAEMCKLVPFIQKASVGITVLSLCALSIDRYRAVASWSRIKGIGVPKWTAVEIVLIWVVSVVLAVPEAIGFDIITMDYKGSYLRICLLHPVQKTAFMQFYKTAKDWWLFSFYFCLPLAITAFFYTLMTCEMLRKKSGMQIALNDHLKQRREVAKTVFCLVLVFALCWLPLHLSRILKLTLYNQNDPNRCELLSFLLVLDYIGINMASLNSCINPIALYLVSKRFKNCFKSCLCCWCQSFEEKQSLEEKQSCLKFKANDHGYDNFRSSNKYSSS
assay-method-text: Compound was evaluated for the selectivity of ET-A receptors (ET-B IC50/ ET-A IC50)
Assay type: protein assay
Please provide measured Selectivity for the entries that follow.
Numbers only.

Please review the entries below; each comes with its answer.
INSERT INTO results (compound, obs_value) VALUES
  ('CC(=O)OCc1c(C)cc(C)c(NC(=O)c2sccc2S(=O)(=O)Nc2onc(C)c2C)c1C', 160000),
  ('Cc1cc(C)c(NC(=O)c2sccc2S(=O)(=O)Nc2onc(C)c2C)c(C)c1CO', 30400),
  ('Cc1noc(NS(=O)(=O)c2ccsc2C(=O)Nc2c(C)c(CC#N)c(C)c(CC#N)c2C)c1Cl', 3);

Would you mind listing Selectivity for each of the following compounds?
1. Cc1cc(C)c(NC(=O)c2sccc2S(=O)(=O)Nc2onc(C)c2Cl)c(C)c1CC(=O)O
2. COC(=O)c1c(C)cc(C)c(NC(=O)c2sccc2S(=O)(=O)Nc2onc(C)c2Cl)c1C
3. Cc1cc(C)c(OC(N)=O)c(C)c1NC(=O)c1sccc1S(=O)(=O)Nc1onc(C)c1Cl

Result:
[59900, 41900, 6700]

Report Selectivity for every entry below.
1. COc1cc(C#N)c(NC(=O)c2sccc2S(=O)(=O)Nc2onc(C)c2Cl)c(OC)c1OC
2. CC(=O)OCc1c(C)cc(C)c(NC(=O)c2sccc2S(=O)(=O)Nc2noc(C)c2Cl)c1C
3. COc1c(C)cc(C)c(CC(=O)c2sccc2S(=O)(=O)Nc2onc(C)c2Cl)c1C

Result:
29200
38400
7640

Provide the reported Selectivity of each entry below, same order.
1. CC(=O)OCc1c(C)cc(C)c(NC(=O)c2sccc2S(=O)(=O)Nc2onc(C)c2Cl)c1C
2. CCOC(=O)N(C(=O)c1sccc1S(=O)(=O)Nc1onc(C)c1Cl)c1c(C)cc(C)c(O)c1C
3. COc1c(C)cc(C)c(NC(=O)c2sccc2S(=O)(=O)Nc2onc(C)c2Cl)c1C

Result:
850000
1530
56400

Provide Selectivity values for the following items, in order.
1. Cc1cc2c(cc1CC(=O)c1sccc1S(=O)(=O)Nc1onc(C)c1Cl)OCO2
2. Cc1cc(C)c(CNC(=O)c2sccc2S(=O)(=O)Nc2onc(C)c2Cl)c(C)c1CC#N
3. Cc1cc(C)c(NC(=O)c2sccc2S(=O)(=O)Nc2onc(C)c2Cl)c(C)c1CO
4. COC(=O)Cc1c(C)cc(C)c(NC(=O)c2sccc2S(=O)(=O)Nc2onc(C)c2Cl)c1C
5. Cc1cc(C)c(NC(=O)c2sccc2S(=O)(=O)Nc2onc(C)c2Cl)c(C)c1CC#N

Result:
1. 3210
2. 95
3. 111000
4. 114000
5. 32900

* * *

assay-method-text: Compound was evaluated for the aqueous solubility (AS) in mg/mL (Measured in 0.2 M phosphate buffer of pH 7.4)
Assay type: physicochemical
condition-set: read-out: AS
property-measured: solubility (mg/mL)
Answers are plain numbers, in mg/mL.

The following compounds have reported results that may help.
INSERT INTO assay_data (smiles_record, property_measured, unit_info, obs_value) VALUES
  ('Cc1cc(C)c(NC(=O)c2sccc2S(=O)(=O)Nc2onc(C)c2Cl)c(C)c1O', 'solubility', 'mg/mL', 83),
  ('Cc1cc(C)c(S(N)(=O)=O)c(C)c1NC(=O)c1sccc1S(=O)(=O)Nc1onc(C)c1Cl', 'solubility', 'mg/mL', 30),
  ('Cc1cc(C)c(NC(=O)c2sccc2S(=O)(=O)Nc2onc(C)c2Cl)c(C)c1CO', 'solubility', 'mg/mL', 65),
  ('Cc1cc(C)c(N(C)C)c(C)c1NC(=O)c1sccc1S(=O)(=O)Nc1onc(C)c1Cl', 'solubility', 'mg/mL', 50);

Please report solubility for every entry that follows.
1. Cc1cc(C)c(NC(=O)c2sccc2S(=O)(=O)Nc2noc(C)c2Cl)c(C)c1CC#N
2. COc1cc(C#N)c(NC(=O)c2sccc2S(=O)(=O)Nc2onc(C)c2Cl)c(OC)c1OC
3. Cc1cc(C)c(NC(=O)c2sccc2S(=O)(=O)Nc2onc(C)c2Cl)c(C)c1C#N
4. Cc1cc(C)c(NC(=O)c2sccc2S(=O)(=O)Nc2onc(C)c2Cl)c(C)c1

Result:
1. 70
2. 43
3. 37
4. 23

* * *

Test system: Rattus norvegicus
assay-method-text: Compound was evaluated for the effective oral dose in Acute Pulmonary Hypertension Rat Model after administering 2 hours prior to experiment
Assay type: functional
property-measured: Effective dose

// known answers, use as guide
INSERT INTO assay_data (compound, obs_value) VALUES
  ('Cc1cc(C)c(NC(=O)c2sccc2S(=O)(=O)Nc2onc(C)c2Cl)c(C)c1CO', '15 mg/kg'),
  ('CC(=O)OCc1c(C)cc(C)c(NC(=O)c2sccc2S(=O)(=O)Nc2onc(C)c2Cl)c1C', '5 mg/kg'),
  ('Cc1cc(C)c(S(N)(=O)=O)c(C)c1NC(=O)c1sccc1S(=O)(=O)Nc1onc(C)c1Cl', '5 mg/kg'),
  ('Cc1cc2c(cc1CC(=O)c1sccc1S(=O)(=O)Nc1onc(C)c1Cl)OCO2 [SITAXENTAN]', '5 mg/kg'),
  ('Cc1cc(C)c(NC(=O)c2sccc2S(=O)(=O)Nc2onc(C)c2Cl)c(C)c1O', '5 mg/kg');

Per the record, Cc1cc(C)c(NC(=O)c2sccc2S(=O)(=O)Nc2onc(C)c2Cl)c(C)c1CC#N has Effective dose of 5 mg/kg

* * *

target-desc: Endothelin receptor, ET-A/ET-B (Homo sapiens) (UniProt P24530+P25101)
assay-method-text: Compound was evaluated for the selectivity of ET-A receptors (ET-B IC50/ ET-A IC50)
Type: protein assay
property-measured: Selectivity

INSERT INTO assay_data (smiles_record, obs_value) VALUES
  ('Cc1cc(C)c(OC(=S)N(C)C)c(C)c1NC(=O)c1sccc1S(=O)(=O)Nc1onc(C)c1Cl', 22600);

Provide each entry's Selectivity from the list below.
1. Cc1cc(C)c(NC(=O)c2sccc2S(=O)(=O)Nc2onc(C)c2C)c(C)c1CC#N
2. Cc1cc(C)c(OCC2CC2)c(C)c1NC(=O)c1sccc1S(=O)(=O)Nc1onc(C)c1Cl

Result:
1: 14600; 2: 59400

* * *

target-desc: Endothelin-1 receptor (Homo sapiens)
Sequence (whole entry): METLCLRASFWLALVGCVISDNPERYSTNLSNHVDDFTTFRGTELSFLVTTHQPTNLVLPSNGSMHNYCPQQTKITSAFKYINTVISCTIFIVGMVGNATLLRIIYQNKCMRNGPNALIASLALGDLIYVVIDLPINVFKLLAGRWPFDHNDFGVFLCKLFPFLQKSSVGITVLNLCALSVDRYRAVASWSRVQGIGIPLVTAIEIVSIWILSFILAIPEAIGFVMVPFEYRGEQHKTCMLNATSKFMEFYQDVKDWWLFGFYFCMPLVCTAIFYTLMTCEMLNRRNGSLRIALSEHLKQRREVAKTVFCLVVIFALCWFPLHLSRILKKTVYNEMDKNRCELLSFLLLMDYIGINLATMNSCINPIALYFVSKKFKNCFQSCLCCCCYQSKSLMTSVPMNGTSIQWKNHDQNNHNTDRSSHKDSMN
assay-method-text: Competitive binding to Endothelin A receptor by displacement of [125I]ET1 (Relative IC50 was calculated as IC50 of compound/IC50 of TBC11251)
property-measured: Relative ET-A IC50
One number for each entry.

INSERT INTO measurements (smiles_record, target_desc, property_measured, obs_value) VALUES
  ('Cc1cc(C)c(CNC(=O)c2sccc2S(=O)(=O)Nc2onc(C)c2Cl)c(C)c1', 'Endothelin-1 receptor (Homo sapiens)', 'Relative ET-A IC50', '1.15e+06');

Provide reported Relative ET-A IC50 for each item, in the same order as listed.
1. Cc1cc(C)c(NC(=O)c2sccc2S(=O)(=O)Nc2onc(C)c2Cl)c(C)c1CC(=O)O
2. Cc1cc(C)c(S(N)(=O)=O)c(C)c1NC(=O)c1sccc1S(=O)(=O)Nc1onc(C)c1Cl
3. COc1c(C)cc(C)c(CC(=O)c2sccc2S(=O)(=O)Nc2onc(C)c2Cl)c1C
4. Cc1cc(C)c(OS(=O)(=O)N(C)C)c(C)c1NC(=O)c1sccc1S(=O)(=O)Nc1onc(C)c1Cl
5. CC(=O)OCc1c(C)cc(C)c(NC(=O)c2sccc2S(=O)(=O)Nc2onc(C)c2C)c1C
6. Cc1cc(C)c(C(=O)O)c(C)c1NC(=O)c1sccc1S(=O)(=O)Nc1onc(C)c1Cl
7. Cc1cc(C)c(NS(C)(=O)=O)c(C)c1NC(=O)c1sccc1S(=O)(=O)Nc1onc(C)c1Cl

Result:
1: 0.12; 2: 0.06; 3: 0.13; 4: 2.3; 5: 0.06; 6: 0.79; 7: 0.11

Quick request: Relative ET-A IC50 for each listed item, please.
1. COC(=O)Oc1c(C)cc(C)c(NC(=O)c2sccc2S(=O)(=O)Nc2onc(C)c2Cl)c1C
2. CCOC(=O)N(C(=O)c1sccc1S(=O)(=O)Nc1onc(C)c1Cl)c1c(C)cc(C)c(O)c1C
3. Cc1cc(C)c(CC(=O)c2sccc2S(=O)(=O)Nc2onc(C)c2Cl)c(C)c1
4. Cc1cc(C)c(CNC(=O)c2sccc2S(=O)(=O)Nc2onc(C)c2Cl)c(C)c1CC#N
5. Cc1cc(C)c(NC(=O)c2sccc2S(=O)(=O)Nc2onc(C)c2Cl)c(C)c1CN(C)C
6. Cc1cc(C)c(NC(=O)c2sccc2S(=O)(=O)Nc2onc(C)c2Cl)c(C)c1

Result:
[0.05, 5.56, 0.24, 56.4, 0.88, 0.1]

Look at each compound and report its Relative ET-A IC50.
1. Cc1cc(C)c(NC(=O)c2sccc2S(=O)(=O)Nc2onc(C)c2C)c(C)c1CO
2. COCCOCCOCC(=O)Oc1c(C)cc(C)c(NC(=O)c2sccc2S(=O)(=O)Nc2onc(C)c2Cl)c1C
3. CC(=O)OCc1c(C)cc(C)c(NC(=O)c2sccc2S(=O)(=O)Nc2onc(C)c2Cl)c1C
4. Cc1cc(C)c(NC(=O)c2sccc2S(=O)(=O)Nc2noc(C)c2Cl)c(C)c1CO

Result:
1: 0.07; 2: 0.5; 3: 0.06; 4: 0.06
